Could you please report measured TGI for the items listed next?
# System: ACHN renal
# assay text: NCI tumour cell line growth inhibition, 48 h
Record the value in µM, omitting the unit from your answer.

Exam item: Fill in TGI for record `CCSC[C@@H]1C[C@](O)(c2ccc(Cl)cc2)[C@@H](c2ccc(Cl)cc2)O1`
Marked response: 36.6

Exam item: Fill in TGI for record O=C1C2CCN(CC2)C1CN1CCOCC1 (stereo not given)
Marked response: 4.18

Exam item: Fill in TGI for record `O=S(=O)(N=C1C(Cl)=C(Cl)C(=NS(=O)(=O)c2ccccc2)C(Cl)=C1Cl)c1ccccc1`
Marked response: 65

Exam item: Fill in TGI for record COc1ccc(N2C(=O)C3CC(c4ccc(Br)cc4)c4c([nH]c5ccccc45)C3C2=O)cc1 (stereo not given)
Marked response: 15.4

###

Could you please report measured GI50 for the items listed next?
# Test system: CAKI-1 renal
# assay text: NCI tumour cell line growth inhibition, 48 h

Exam item: Fill in GI50 for record `Nc1ncc(-c2ccc3ncnc(Nc4cccc(Cl)c4)c3c2)cn1`
Marked response: 0.0346 µM

Exam item: Fill in GI50 for record `COc1ccccc1C#Cc1ccccc1C#Cc1ccc(OCCCCCCOc2ccccc2C#Cc2ccccc2C#Cc2ccccc2OC)cc1`
Marked response: > 100 µM

Exam item: Fill in GI50 for record `CCCc1nn(C)c2c(=O)[nH]c(-c3cc(S(=O)(=O)N4CCN(C)CC4)ccc3OCC)nc12`
Marked response: > 100 µM

Exam item: Fill in GI50 for record CN1C(=O)CCC(N2C(=O)c3cccc(NCCOCCOCCNC(=O)c4cc5c(o4)C(=O)c4ccccc4C5=O)c3C2=O)C1=O (stereo unspecified)
Marked response: 3.35 µM

Exam item: Fill in GI50 for record `CCOC(=O)C(=Cc1ccc(C#N)cc1)C(=O)OCC`
Marked response: 2.12 µM

Exam item: Fill in GI50 for record `Cc1c(Cn2c(C)nc3c(C(=O)O)cc(N4CCOCC4)cc32)cccc1C(F)(F)F`
Marked response: 7.44 µM

Exam item: Fill in GI50 for record `NC(=S)N/N=C/c1ccc(OC(=O)COc2cc(Cl)c(Cl)cc2Cl)cn1`
Marked response: 3.97 µM

Exam item: Fill in GI50 for record `C(=N\Nc1ncc(-c2cc3cc4c(cc3o2)OCO4)s1)/c1ccco1`
Marked response: 0.854 µM

Exam item: Fill in GI50 for record `COc1cnc2c(c1)C(=O)c1c-2n(CCCN2CCCC2)c(=O)c2cc([N+](=O)[O-])ccc12`
Marked response: < 0.01 µM

Exam item: Fill in GI50 for record `COc1ccc(Nc2nc(NCCNc3ccnc4cc(Cl)ccc34)nc(N3CCOCC3)n2)cc1`
Marked response: 4.17 µM

Exam item: Fill in GI50 for record `Oc1ccccc1-c1nn(CNc2ccc(Cl)cc2)c(=S)o1`
Marked response: 3.71 µM

###

# Test system: HOP-62 NSCLC
# assay text: NCI tumour cell line growth inhibition, 48 h
test readout: GI50

Exam item: Fill in GI50 for record `CCOC(=O)C(=Cc1ccc(C#N)cc1)C(=O)OCC`
Marked response: 2730 nM

Exam item: Fill in GI50 for record `CCSC[C@@H]1C[C@](O)(c2ccc(Cl)cc2)[C@@H](c2ccc(Cl)cc2)O1`
Marked response: 16700 nM

Exam item: Fill in GI50 for record CN1C(=O)CCC(N2C(=O)c3cccc(NCCOCCOCCNC(=O)c4cc5c(o4)C(=O)c4ccccc4C5=O)c3C2=O)C1=O (centres undefined)
Marked response: 1970 nM

Exam item: Fill in GI50 for record `C=C(C)[C@@H]1CC[C@]2(CO)CC[C@]3(C)[C@H](CC[C@@H]4[C@@]5(C)CCCNC(C)(C)[C@@H]5CC[C@]43C)[C@@H]12`
Marked response: 1810 nM

###

# Tested on: COLO 205 colon
# assay text: NCI tumour cell line growth inhibition, 48 h
test readout: TGI

Exam item: Provide COLO 205 colon TGI reading for `COC(=O)c1ccc(NCc2cc(OC)ccc2OC)cc1` .
Marked response: > 100 µM

Exam item: Provide COLO 205 colon TGI reading for Cc1ccc(OCC2CO2)c(Br)c1 (stereo not given) .
Marked response: 32.3 µM

Exam item: Provide COLO 205 colon TGI reading for `CC#Cc1c(O)c2c(c(O)c1C#CC)C(=O)c1ccccc1C2=O` .
Marked response: > 100 µM

Exam item: Provide COLO 205 colon TGI reading for `COc1ccc(C(=O)/C=C/c2ccc(OCCCCCCCCCCOc3ccc(/C=C/C(=O)c4ccc(OC)cc4)cc3)cc2)cc1` .
Marked response: > 100 µM

Exam item: Provide COLO 205 colon TGI reading for NC(=O)CC1OC(=O)Cc2cc3c(c(O)c21)C(=O)c1c(O)cccc1C3=O (stereo not given) .
Marked response: > 100 µM

Exam item: Provide COLO 205 colon TGI reading for `COC[C@H](NC(=O)c1cnc(C)s1)C(=O)N[C@@H](COC)C(=O)N[C@@H](Cc1ccccc1)C(=O)[C@@]1(C)CO1` .
Marked response: > 100 µM

Exam item: Provide COLO 205 colon TGI reading for O=c1onc2n1-c1ccc(Cl)cc1C(=S)N1CSCC21 (stereo not given) .
Marked response: 35.1 µM

Exam item: Provide COLO 205 colon TGI reading for `CCN(CC)CCN(CC)CC.CCN(CC)CCN(CC)CC.[Cu+2].[Cu+2].[O-][Cl+3]([O-])([O-])[O-].[OH3+].[OH3+]` .
Marked response: > 100 µM

Exam item: Provide COLO 205 colon TGI reading for CSc1ccc(C2=NN(C(C)=O)C(c3ccc(-c4cc(Cl)c(Cl)cc4Cl)o3)C2)cc1 (stereo not given) .
Marked response: 32.1 µM

Exam item: Provide COLO 205 colon TGI reading for `NC(=O)c1cc(N2CC2)c([N+](=O)[O-])cc1[N+](=O)[O-]` .
Marked response: > 200 µM

###

# Tested on: NCI-H226 lung
# assay text: NCI tumour cell line growth inhibition, 48 h
Could you please report measured GI50 for the items listed next?

Exam item: Provide NCI-H226 lung GI50 reading for `CCN1CCN(CCNc2nccc(-c3c(-c4ccc(F)c(O)c4)nc4occn34)n2)S1(=O)=O` .
Marked response: 3.8 µM

Exam item: Provide NCI-H226 lung GI50 reading for Cc1ccc2c(C(C[N+](=O)[O-])c3ccccc3)c(-c3ccccc3)[nH]c2c1 (configuration not stated) .
Marked response: 62.4 µM

Exam item: Provide NCI-H226 lung GI50 reading for `Cc1ccc(CNc2ccc3nc(CCC4CCCCC4)[nH]c3c2)cc1` .
Marked response: 1.77 µM

Exam item: Provide NCI-H226 lung GI50 reading for `CCOC(=O)C(=Cc1ccc(C#N)cc1)C(=O)OCC` .
Marked response: 2.51 µM

Exam item: Provide NCI-H226 lung GI50 reading for `COC(=O)/C=C1/SC(=Nc2cccc(Cl)c2)N(CCc2c[nH]c3ccc(O)cc23)C1=O` .
Marked response: 1.65 µM

Exam item: Provide NCI-H226 lung GI50 reading for CN1C(=O)CCC(N2C(=O)c3cccc(NCCOCCOCCNC(=O)c4cc5c(o4)C(=O)c4ccccc4C5=O)c3C2=O)C1=O (configuration not stated) .
Marked response: 1.67 µM

Exam item: Provide NCI-H226 lung GI50 reading for `Oc1ccccc1-c1nn(CNc2ccc(Cl)cc2)c(=S)o1` .
Marked response: 14.1 µM

Exam item: Provide NCI-H226 lung GI50 reading for `COc1ccc(-c2ncnc3c2ncn3CC#CCCl)cc1` .
Marked response: 4.45 µM

Exam item: Provide NCI-H226 lung GI50 reading for `COc1ccc2c(c1)c(-c1nc(-c3cn(C)c4ccncc34)cs1)cn2C` .
Marked response: 1.83 µM

Exam item: Provide NCI-H226 lung GI50 reading for `O=S(=O)(N=C1C(Cl)=C(Cl)C(=NS(=O)(=O)c2ccccc2)C(Cl)=C1Cl)c1ccccc1` .
Marked response: 21.6 µM

Exam item: Provide NCI-H226 lung GI50 reading for `CCSC[C@@H]1C[C@](O)(c2ccc(Cl)cc2)[C@@H](c2ccc(Cl)cc2)O1` .
Marked response: 17.8 µM

Exam item: Provide NCI-H226 lung GI50 reading for `CC(=O)O.CN1[CH-]N(Cc2ccc(C#N)cc2)c2ccccc21.[Ag+]` .
Marked response: 16.7 µM

###

# System: LOX IMVI melanoma
# assay text: NCI tumour cell line growth inhibition, 48 h
test readout: TGI

Exam item: Provide LOX IMVI melanoma TGI reading for C=C1C2CCC3C4(C)CCCC(C)(C(=O)O)C4CCC3(C2)C1OC(=O)/C(C)=C/C (configuration not stated) .
Marked response: > 100 µM

Exam item: Provide LOX IMVI melanoma TGI reading for `COC(=O)C1=CO[C@@H](C)[C@@H]2Cn3ccc4c5ccccc5nc-4c3C[C@H]12` .
Marked response: > 100 µM

Exam item: Provide LOX IMVI melanoma TGI reading for `CN(C)c1ccc(/C=c2\sc3nnc(-c4ccco4)n3c2=O)cc1` .
Marked response: > 100 µM

Exam item: Provide LOX IMVI melanoma TGI reading for COc1nc(N)nc2c1ncn2C1CC(O)C(CO)O1 (configuration not stated) .
Marked response: > 100 µM

Exam item: Provide LOX IMVI melanoma TGI reading for `COC(=O)/C=C1/SC(=Nc2cccc(Cl)c2)N(CCc2c[nH]c3ccc(O)cc23)C1=O` .
Marked response: 2.98 µM

Exam item: Provide LOX IMVI melanoma TGI reading for `CCSC[C@@H]1C[C@](O)(c2ccc(Cl)cc2)[C@@H](c2ccc(Cl)cc2)O1` .
Marked response: 40.7 µM

Exam item: Provide LOX IMVI melanoma TGI reading for COc1ccc(C(=O)C2CCC(C(=O)O)C2)cc1 (configuration not stated) .
Marked response: > 100 µM

Exam item: Provide LOX IMVI melanoma TGI reading for Nc1nc(=O)n(C2CCC(CO)O2)cc1F (configuration not stated) .
Marked response: > 100 µM

Exam item: Provide LOX IMVI melanoma TGI reading for CC1=CCC2CC1C(C(=O)c1c[nH]c3ccccc13)=NC2(C)C (configuration not stated) .
Marked response: > 100 µM

Exam item: Provide LOX IMVI melanoma TGI reading for `COC(=O)c1ccc(NCc2cc(OC)ccc2OC)cc1` .
Marked response: > 100 µM

Exam item: Provide LOX IMVI melanoma TGI reading for `CCCCCCCCCCCCSC(=S)c1c(C)[nH]n(-c2ccccc2)c1=O` .
Marked response: > 50 µM

Exam item: Provide LOX IMVI melanoma TGI reading for `CN(C)CCNc1ccc2ncn3c4ccc(O)cc4c(=O)c1c23` .
Marked response: 3.36 µM

Exam item: Provide LOX IMVI melanoma TGI reading for COC(=O)C1CCC(=O)N1C(c1ccc(OC)cc1)c1cc(OC)c(OC)c(OC)c1 (configuration not stated) .
Marked response: > 36.9 µM

Exam item: Provide LOX IMVI melanoma TGI reading for `NS(=O)(=O)c1ccc(NC(=O)N/N=C/c2ccccc2[N+](=O)[O-])cc1` .
Marked response: > 100 µM

Exam item: Provide LOX IMVI melanoma TGI reading for Cc1ccc2c(c1)nc1n2C(c2c(F)cccc2F)SC1 (configuration not stated) .
Marked response: > 100 µM

Exam item: Provide LOX IMVI melanoma TGI reading for CCOC(=O)CNC(=O)C(CCC(=O)N(C)O)NC(=O)CCC(N)C(=O)O (configuration not stated) .
Marked response: > 100 µM

Exam item: Provide LOX IMVI melanoma TGI reading for `C(=N\c1nc2cc3sc(/N=C/c4ccccc4)nc3cc2s1)/c1ccccc1` .
Marked response: > 100 µM

Exam item: Provide LOX IMVI melanoma TGI reading for `O=C1c2c(c(=O)[nH]c3ccccc23)[C@H](c2ccccc2)[C@@H]2CCCN12` .
Marked response: 11.8 µM

Exam item: Provide LOX IMVI melanoma TGI reading for `Cc1ccc(CNc2ccc3nc(CCC4CCCCC4)[nH]c3c2)cc1` .
Marked response: 3.19 µM

Exam item: Provide LOX IMVI melanoma TGI reading for CC(C)(C)C1=C(Br)C(F)(C(C)(C)C)OP1(=O)c1ccccc1 (configuration not stated) .
Marked response: 36.4 µM

Exam item: Provide LOX IMVI melanoma TGI reading for Cc1ccc2nc3ccccc3c(C3C4C(=O)N(c5ccc(F)cc5)C(=O)C4ON3C(C(N)=O)c3ccccc3)c2c1 (configuration not stated) .
Marked response: > 100 µM

Exam item: Provide LOX IMVI melanoma TGI reading for `CCOP(=O)(CC(=O)C1CC1)OCC` .
Marked response: > 100 µM
